# tgt: T1, IL-11 stably expressed on CHO cells (membrane-IL-11 CHO) (UniProt P20809 22-199)
# T1 construct: whole, on cells
# T1 sequence (looked up): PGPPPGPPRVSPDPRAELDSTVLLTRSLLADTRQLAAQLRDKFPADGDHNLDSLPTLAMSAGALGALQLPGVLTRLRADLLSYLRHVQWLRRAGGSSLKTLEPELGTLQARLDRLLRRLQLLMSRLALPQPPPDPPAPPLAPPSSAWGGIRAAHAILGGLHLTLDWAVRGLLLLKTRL
# assay_text: flow cytometry on membrane-IL-11 CHO cells, detection with goat-anti-Fc-FITC
assay_endpoint: EC50 (read off the curve)

>  <binder>
MIL-11 mab-02 (antibody, IgG1, V domains shown, also called 2E2 full-length antibody) VH: QVQLVQSGAEVKKPGASVKVSCKASDYTFTNYWLGWVRQAPGQGLEWMGHIYPGGGYTNYNEKFKGRVTMTRDTSTSTVYMELSSLRSEDTAVYYCARVSSGNDALDFWGQGTLVTVSS VL: EIVLTQSPATLSLSPGERATLSCRASESVDEYGISFMNWFQQKPGQAPRLLIYSASNQGSGIPARFSGSGSGTDFTLTISSLEPEDFAVYFCQQSKELPWTFGGGTKLEIK

>  <measured_result>
~2 µg/mL

$$$$
>  <binder>
MIL-11 mab-01 (antibody, IgG1, V domains shown, also called 1E12 full-length antibody) VH: QVQLVQSGAEVKKPGASVKVSCKASDYTFTNYWLGWVRQAPGQGLEWMGHIYPGGGYTNYNEKFKGRVTMTRDTSTSTVYMELSSLRSEDTAVYYCARVSSGNDALDLWGQGTLVTVSS VL: EIVLTQSPATLSLSPGERATLSCRASESVDEYGISFMNWFQQKPGQAPRLLIYSGSNEGSGIPARFSGSGSGTDFTLTISSLEPEDFAVYFCNQSKEVPWTFGGGTKLEIK

>  <measured_result>
~3 µg/mL

$$$$
>  <binder>
VH1+VL3 full-length humanized antibody (antibody, human IgG1, kappa, V domains shown, IgG form, IgG1 Fc; also called VH1+VL3 mAb; CPD-2) VH: QVQLVQSGAEVKKPGASVKVSCKASDYTFTNYWLGWVRQAPGQGLEWMGHIYPGGGYTNYNEKFKGRVTMTRDTSTSTVYMELSSLRSEDTAVYYCARVRSGNDALDFWGQGTLVTVSS VL: EIVLTQSPATLSLSPGERATLSCRASESVDEYGISFMNWFQQKPGQAPRLLIYSASNQGSGIPARFSGSGSGTDFTLTISSLEPEDFAVYFCQQSKEVPWTFGGGTKLEIKR

>  <measured_result>
~2 µg/mL

$$$$
